system: 156681-154-R-J1 tumor spheroid viability; experiment: Anticancer human tumor 156681-154-R-J1 patient-derived melanoma cell line growth inhibition; settings: curve of compound; spheroids with HUVEC and MSC
measurement type: IC50

Below is a list of compounds. For each, state its recorded IC50.
1. Cc1cc(C)c(CNC(=O)c2cc(-c3ccc(CN4CCOCC4)cc3)cc3c2cnn3C2CCCC2)c(=O)[nH]1
2. O=C(c1cc(Cc2n[nH]c(=O)c3ccccc23)ccc1F)N1CCN(C(=O)C2CC2)CC1
3. CC(C)n1c(=O)n(C)c2cnc3cc(F)c(-c4ccc(OCCCN5CCCCC5)nc4)cc3c21
4. [2H]c1nc(C)nc([2H])c1-c1cc(NC[C@@H](C)c2cccc3c(C(=O)NC)ccnc23)ncn1
5. COc1cc(C)[nH]c(=O)c1CN1CCc2c(Cl)cc(C(OC)C3COC3)c(Cl)c2C1=O (stereo not given)

1: > 10 µM; 2: > 30 µM; 3: > 10 µM; 4: > 10 µM; 5: > 10 µM

====

tested on: 156681-154-R-J1 tumor spheroid viability; assay: Anticancer human tumor 156681-154-R-J1 cell line growth inhibition; conditions: second compound 0.3 µM; first compound 3.16 µM; stronger effect = lower value; spheroids with HUVEC and MSC;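 further: spheroids exposed to compounds for 7 days before readout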
Exam item: assign met to entries whose viability, T/C is below 30% and not met to entries at or above 30%. Note that a value of exactly 30% receives not met.

1. CC(C)n1c(=O)n(C)c2cnc3cc(F)c(-c4ccc(OCCCN5CCCCC5)nc4)cc3c21 + CC[C@@]1(O)C(=O)OCc2c1cc1n(c2=O)Cc2cc3c(CN(C)C)c(O)ccc3nc2-1
met
2. Cc1cc(C)c(CNC(=O)c2cc(-c3ccc(CN4CCOCC4)cc3)cc3c2cnn3C2CCCC2)c(=O)[nH]1 + CC[C@@]1(O)C(=O)OCc2c1cc1n(c2=O)Cc2cc3c(CN(C)C)c(O)ccc3nc2-1
met
3. COc1cc(C)[nH]c(=O)c1CN1CCc2c(Cl)cc(C(OC)C3COC3)c(Cl)c2C1=O (stereo unspecified) + CC[C@@]1(O)C(=O)OCc2c1cc1n(c2=O)Cc2cc3c(CN(C)C)c(O)ccc3nc2-1
not met
4. [2H]c1nc(C)nc([2H])c1-c1cc(NC[C@@H](C)c2cccc3c(C(=O)NC)ccnc23)ncn1 + CC[C@@]1(O)C(=O)OCc2c1cc1n(c2=O)Cc2cc3c(CN(C)C)c(O)ccc3nc2-1
not met

Would you kindly verify if viability, T/C of COc1ccc([C@@H](O)c2cc(-c3ncnc4cc(N5CCOCC5)ccc34)c(F)cc2Cl)nn1 + CC[C@@]1(O)C(=O)OCc2c1cc1n(c2=O)Cc2cc3c(CN(C)C)c(O)ccc3nc2-1 is strictly less than 30%?
met

====

tested on: 156681-154-R-J1 tumor spheroid viability; test: Anticancer human tumor 156681-154-R-J1 cell line growth inhibition; details: second compound 0.0003 µM; first compound 0.1 µM; stronger effect = lower value; spheroids with HUVEC and MSC;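 further: spheroids exposed to compounds for 7 days before readout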;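 on viability, T/C: percent of vehicle control viability where 100% = DMSO-treated spheroids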
measurement type: viability, T/C

Solved cases (5 shown):
1) CC(C)n1c(=O)n(C)c2cnc3cc(F)c(-c4ccc(OCCCN5CCCCC5)nc4)cc3c21 + COc1cc2c(cc1O)CCNC21CSC2c3c(OC(C)=O)c(C)c4c(c3C(COC1=O)N1C(O)C3Cc5cc(C)c(OC)c(O)c5C(C21)N3C)OCO4
63.5%
2) CC1COCCN1c1cc(-c2ccnn2C)c2ccnc(-c3ccn[nH]3)c2n1 (stereo unspecified) + COc1cc2c(cc1O)CCNC21CSC2c3c(OC(C)=O)c(C)c4c(c3C(COC1=O)N1C(O)C3Cc5cc(C)c(OC)c(O)c5C(C21)N3C)OCO4
41.1%
3) COc1cc(C)[nH]c(=O)c1CN1CCc2c(Cl)cc(C(OC)C3COC3)c(Cl)c2C1=O (stereo unspecified) + COc1cc2c(cc1O)CCNC21CSC2c3c(OC(C)=O)c(C)c4c(c3C(COC1=O)N1C(O)C3Cc5cc(C)c(OC)c(O)c5C(C21)N3C)OCO4
82.3%
4) Cc1cc(C)c(CNC(=O)c2cc(-c3ccc(CN4CCOCC4)cc3)cc3c2cnn3C2CCCC2)c(=O)[nH]1 + COc1cc2c(cc1O)CCNC21CSC2c3c(OC(C)=O)c(C)c4c(c3C(COC1=O)N1C(O)C3Cc5cc(C)c(OC)c(O)c5C(C21)N3C)OCO4
74.5%
5) COc1ccc([C@@H](O)c2cc(-c3ncnc4cc(N5CCOCC5)ccc34)c(F)cc2Cl)nn1 + COc1cc2c(cc1O)CCNC21CSC2c3c(OC(C)=O)c(C)c4c(c3C(COC1=O)N1C(O)C3Cc5cc(C)c(OC)c(O)c5C(C21)N3C)OCO4
79.5%

Shifting focus to the compound that follows.
Report viability, T/C for [2H]c1nc(C)nc([2H])c1-c1cc(NC[C@@H](C)c2cccc3c(C(=O)NC)ccnc23)ncn1 + COc1cc2c(cc1O)CCNC21CSC2c3c(OC(C)=O)c(C)c4c(c3C(COC1=O)N1C(O)C3Cc5cc(C)c(OC)c(O)c5C(C21)N3C)OCO4 tested on 156681-154-R-J1 tumor spheroid viability.
86.6%

====

So I've got a bunch of compounds here, and I need their viability, T/C values.
tested on: 156681-154-R-J1 tumor spheroid viability; assay: Anticancer human tumor 156681-154-R-J1 cell line growth inhibition; details: second compound 100 µM; first compound 0.0316 µM; stronger effect = lower value; spheroids with HUVEC and MSC;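 further: spheroids exposed to compounds for 7 days before readout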;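 on viability, T/C: percent of vehicle control viability where 100% = DMSO-treated spheroids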
One number for each entry, in %.

1) CC1COCCN1c1cc(-c2ccnn2C)c2ccnc(-c3ccn[nH]3)c2n1 (stereo unspecified) + Cn1nnc2c(C(N)=O)ncn2c1=O
23.6
2) CC(C)n1c(=O)n(C)c2cnc3cc(F)c(-c4ccc(OCCCN5CCCCC5)nc4)cc3c21 + Cn1nnc2c(C(N)=O)ncn2c1=O
51.9
3) [2H]c1nc(C)nc([2H])c1-c1cc(NC[C@@H](C)c2cccc3c(C(=O)NC)ccnc23)ncn1 + Cn1nnc2c(C(N)=O)ncn2c1=O
55.3
4) Cc1cc(C)c(CNC(=O)c2cc(-c3ccc(CN4CCOCC4)cc3)cc3c2cnn3C2CCCC2)c(=O)[nH]1 + Cn1nnc2c(C(N)=O)ncn2c1=O
51.2
5) COc1ccc([C@@H](O)c2cc(-c3ncnc4cc(N5CCOCC5)ccc34)c(F)cc2Cl)nn1 + Cn1nnc2c(C(N)=O)ncn2c1=O
55

Shifting focus to the compound that follows.
Item COc1cc(C)[nH]c(=O)c1CN1CCc2c(Cl)cc(C(OC)C3COC3)c(Cl)c2C1=O (stereo unspecified) + Cn1nnc2c(C(N)=O)ncn2c1=O has what recorded viability, T/C?
45

====

test system: 156681-154-R-J1 tumor spheroid viability; assay: Anticancer human tumor 156681-154-R-J1 cell line growth inhibition; conditions: second compound 1 µM; first compound 1 µM; stronger effect = lower value; spheroids with HUVEC and MSC;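 further: spheroids exposed to compounds for 7 days before readout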;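 on viability, T/C: percent of vehicle control viability where 100% = DMSO-treated spheroids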
Exam item: assign t to entries whose viability, T/C is below 90% and f to entries at or above 90%. Note that a value of exactly 90% receives f.

1) CC1COCCN1c1cc(-c2ccnn2C)c2ccnc(-c3ccn[nH]3)c2n1 (stereo unspecified) + Cn1nnc2c(C(N)=O)ncn2c1=O
t
2) [2H]c1nc(C)nc([2H])c1-c1cc(NC[C@@H](C)c2cccc3c(C(=O)NC)ccnc23)ncn1 + Cn1nnc2c(C(N)=O)ncn2c1=O
t

Would you kindly verify if viability, T/C of CC(C)n1c(=O)n(C)c2cnc3cc(F)c(-c4ccc(OCCCN5CCCCC5)nc4)cc3c21 + Cn1nnc2c(C(N)=O)ncn2c1=O is strictly less than 90%?
f

Then COc1ccc([C@@H](O)c2cc(-c3ncnc4cc(N5CCOCC5)ccc34)c(F)cc2Cl)nn1 + Cn1nnc2c(C(N)=O)ncn2c1=O ?
t

Then COc1cc(C)[nH]c(=O)c1CN1CCc2c(Cl)cc(C(OC)C3COC3)c(Cl)c2C1=O (stereo unspecified) + Cn1nnc2c(C(N)=O)ncn2c1=O ?
f

====

System: 156681-154-R-J1 tumor spheroid viability
Assay: Anticancer human tumor 156681-154-R-J1 cell line growth inhibition;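 further: spheroids exposed to compounds for 7 days before readout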;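 on viability, T/C: percent of vehicle control viability where 100% = DMSO-treated spheroids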
Conditions: second compound 0.003 µM; first compound 0.0316 µM; stronger effect = lower value; spheroids with HUVEC and MSC
Procedure: Multicellular complex tumor spheroid response to DNA repair inhibitors in combination with DNA-damaging drugs This study explores the anticancer activities of DNA-damaging drugs and inhibitors of DNA damage repair, both as single agents and in combinations. […] Twenty-six patient-derived or established malignant cell lines were evaluated representing sarcoma, melanoma, small cell lung cancer (SCLC), non-small cell lung cancer (NSCLC), as well as bladder, ovarian and pancreatic cancers. […]
So I've got a bunch of compounds here, and I need their viability, T/C values.
Numbers only, in %.

Solved cases (5 shown):
1. CC1COCCN1c1cc(-c2ccnn2C)c2ccnc(-c3ccn[nH]3)c2n1 (configuration not stated) + COc1cc2c(cc1O)CCNC21CSC2c3c(OC(C)=O)c(C)c4c(c3C(COC1=O)N1C(O)C3Cc5cc(C)c(OC)c(O)c5C(C21)N3C)OCO4
0.23
2. COc1cc(C)[nH]c(=O)c1CN1CCc2c(Cl)cc(C(OC)C3COC3)c(Cl)c2C1=O (configuration not stated) + CC[C@@]1(O)C(=O)OCc2c1cc1n(c2=O)Cc2cc3c(CN(C)C)c(O)ccc3nc2-1
106
3. Cc1cc(C)c(CNC(=O)c2cc(-c3ccc(CN4CCOCC4)cc3)cc3c2cnn3C2CCCC2)c(=O)[nH]1 + COc1cc2c(cc1O)CCNC21CSC2c3c(OC(C)=O)c(C)c4c(c3C(COC1=O)N1C(O)C3Cc5cc(C)c(OC)c(O)c5C(C21)N3C)OCO4
0.35
4. Cc1cc(C)c(CNC(=O)c2cc(-c3ccc(CN4CCOCC4)cc3)cc3c2cnn3C2CCCC2)c(=O)[nH]1 + CC[C@@]1(O)C(=O)OCc2c1cc1n(c2=O)Cc2cc3c(CN(C)C)c(O)ccc3nc2-1
137
5. [2H]c1nc(C)nc([2H])c1-c1cc(NC[C@@H](C)c2cccc3c(C(=O)NC)ccnc23)ncn1 + CC[C@@]1(O)C(=O)OCc2c1cc1n(c2=O)Cc2cc3c(CN(C)C)c(O)ccc3nc2-1
100

Below is a list of compounds. For each, state its recorded viability, T/C.
1. [2H]c1nc(C)nc([2H])c1-c1cc(NC[C@@H](C)c2cccc3c(C(=O)NC)ccnc23)ncn1 + COc1cc2c(cc1O)CCNC21CSC2c3c(OC(C)=O)c(C)c4c(c3C(COC1=O)N1C(O)C3Cc5cc(C)c(OC)c(O)c5C(C21)N3C)OCO4
2. COc1cc(C)[nH]c(=O)c1CN1CCc2c(Cl)cc(C(OC)C3COC3)c(Cl)c2C1=O (configuration not stated) + COc1cc2c(cc1O)CCNC21CSC2c3c(OC(C)=O)c(C)c4c(c3C(COC1=O)N1C(O)C3Cc5cc(C)c(OC)c(O)c5C(C21)N3C)OCO4
3. CC(C)n1c(=O)n(C)c2cnc3cc(F)c(-c4ccc(OCCCN5CCCCC5)nc4)cc3c21 + CC[C@@]1(O)C(=O)OCc2c1cc1n(c2=O)Cc2cc3c(CN(C)C)c(O)ccc3nc2-1
4. COc1ccc([C@@H](O)c2cc(-c3ncnc4cc(N5CCOCC5)ccc34)c(F)cc2Cl)nn1 + COc1cc2c(cc1O)CCNC21CSC2c3c(OC(C)=O)c(C)c4c(c3C(COC1=O)N1C(O)C3Cc5cc(C)c(OC)c(O)c5C(C21)N3C)OCO4
5. CC1COCCN1c1cc(-c2ccnn2C)c2ccnc(-c3ccn[nH]3)c2n1 (configuration not stated) + CC[C@@]1(O)C(=O)OCc2c1cc1n(c2=O)Cc2cc3c(CN(C)C)c(O)ccc3nc2-1
6. CC(C)n1c(=O)n(C)c2cnc3cc(F)c(-c4ccc(OCCCN5CCCCC5)nc4)cc3c21 + COc1cc2c(cc1O)CCNC21CSC2c3c(OC(C)=O)c(C)c4c(c3C(COC1=O)N1C(O)C3Cc5cc(C)c(OC)c(O)c5C(C21)N3C)OCO4
7. COc1ccc([C@@H](O)c2cc(-c3ncnc4cc(N5CCOCC5)ccc34)c(F)cc2Cl)nn1 + CC[C@@]1(O)C(=O)OCc2c1cc1n(c2=O)Cc2cc3c(CN(C)C)c(O)ccc3nc2-1

0.26
0.33
83
0.27
83.5
0.23
80.6
